Value source: PubChem BioAssay (EPA / NIEHS)

- Read-out: Monocyte Chemoattractant Protein-1 (MCP1), CCL2 (gene 6347)
- assay.notes: BSK_3C_MCP1: BioMAP Diversity Plus: 3C Assay for Monocyte Chemoattractant Protein-1 (MCP1) Biomarker Activity (AID 2283017)
- test.context: primary human endothelial cells (HUVEC); actives raise or lower the signal
Activity calls are given as the source filed them. The calls were made as follows: active = hit-call score of the fitted dose curve at least 0.9, where 1 is the maximum; inactive = score below 0.9.
Reply using exactly one outcome from true for active, false for inactive

Prompt: Identify the outcome logged in this assay for the compound shown: C1=Cc2cccc3cccc1c23
Completion: false

Prompt: Same thing, different compound: Clc1ccc(C(c2ccc(Cl)cc2)C(Cl)Cl)cc1
Completion: true

Prompt: Same thing, different compound: c1ccc2c(c1)-c1cccc3cccc-2c13
Completion: false

Prompt: Same thing, different compound: [Cl-].[Cl-].[Hg+2]
Completion: false

Prompt: Same thing, different compound: Cc1ccc(N=C=O)cc1N=C=O
Completion: false

Prompt: Same thing, different compound: CCC(C)c1ccc(O)cc1 (stereo not given)
Completion: false

Prompt: Same thing, different compound: Nc1cc(Cl)cc(C(=O)O)c1Cl
Completion: false

Prompt: Same thing, different compound: c1ccc(N=Nc2ccccc2)cc1
Completion: false

Prompt: Same thing, different compound: Clc1ccc(C(c2ccc(Cl)cc2)C(Cl)(Cl)Cl)cc1
Completion: true

Prompt: Same thing, different compound: Oc1ccccc1Cl
Completion: false

Prompt: Same thing, different compound: CC(C)(C)OOC(=O)c1ccccc1
Completion: false

Prompt: Same thing, different compound: CC(C)COC(=O)c1ccccc1C(=O)OCC(C)C
Completion: true

Prompt: Same thing, different compound: Nc1ccc(Oc2ccc(N)cc2)cc1
Completion: false

Prompt: Same thing, different compound: CCCCCOC(=O)c1ccccc1C(=O)OCCCCC
Completion: false

Prompt: Same thing, different compound: C[N+](C)(C)CC1CO1 (stereo not given)
Completion: false

====

- Read-out: Plasminogen activator inhibitor-1 (PAI1), SERPINE1 (gene 5054)
- assay.notes: BSK_BE3C_PAI1: BioMAP Diversity Plus: BE3C Assay for Plasminogen activator inhibitor-1 (PAI1) Biomarker Activity (AID 2283037)
- test.context: primary human bronchial epithelial cells; actives raise or lower the signal
The source made the active and inactive calls. The calls were made as follows: active = hit-call score of the fitted dose curve at least 0.9, where 1 is the maximum; inactive = score below 0.9.
Reply using exactly one outcome from YES for active, NO for inactive

Prompt: Identify the outcome logged in this assay for the molecule shown: Brc1ccc(Oc2ccccc2)cc1
Completion: NO

Prompt: Same thing, different molecule: CCOC(=O)[C@]1(c2ccccc2)Oc2ccccc2[C@@H]1N
Completion: NO

Prompt: Same thing, different molecule: CCC12COCN1COC2
Completion: NO

Prompt: Same thing, different molecule: O=C(O)C1C2CCC(O2)C1C(=O)O (centres undefined)
Completion: NO

Prompt: Same thing, different molecule: O=Cc1ccco1
Completion: NO

Prompt: Same thing, different molecule: C=CCc1ccc2c(c1)OCO2
Completion: NO

Prompt: Same thing, different molecule: [O-][Cl+]O
Completion: NO

Prompt: Same thing, different molecule: CO[C@@H]1[C@H](OC(=O)NC(=O)CCl)CC[C@]2(CO2)[C@H]1[C@@]1(C)O[C@@H]1CC=C(C)C
Completion: YES

Prompt: Same thing, different molecule: CC(C)N(Cc1ccccc1)C(=O)C(C)(C)C
Completion: NO

Prompt: Same thing, different molecule: [As]#[In]
Completion: NO

Prompt: Same thing, different molecule: CCCCCCCCOC(=O)c1ccc(C(=O)OCCCCCCCC)c(C(=O)OCCCCCCCC)c1
Completion: NO

Prompt: Same thing, different molecule: CCCCCOC(=O)c1ccccc1C(=O)OCCCCC
Completion: NO

Prompt: Same thing, different molecule: Cc1ccc(N=C=O)cc1N=C=O
Completion: NO

Prompt: Same thing, different molecule: Cc1cccc(N)c1N
Completion: NO
